# Test summary: NCI Yeast Anticancer Drug Screen. Data for the rad50EPP+ strain (AID 151);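 further: 0% = growth of vehicle-treated control cultures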
# Condition label: S. cerevisiae rad50 mutant strain, at 33.0 µM, stronger effect = higher value
# Protocol: Growth inhibition of yeast strains with defined genetic alterations is measured as a screen for potential anti-cancer activity. Selected strains with alterations in DNA damage repair or cell cycle control were exposed to compounds and growth inhibition was measured relative to vehicle treated controls. The strain used in this assay is rad50EPP+
Compounds without any hit were thinned out: in the full panel of roughly 79,000, 15% have a hit.
// class assignment uses growth inhibition with these ranges: bin 1: < 20%; bin 2: ≥ 20% and < 80%; bin 3: ≥ 80%

Solved cases below.
>  <Compound>
CN(C)Cc1cc(N=Nc2ccc(Cl)cc2)cc(CN(C)C)c1O

>  <Class label>
bin 2

$$$$
>  <Compound>
O=CNc1ccc2c(c1)C(=O)c1ccccc1-2

>  <Class label>
bin 3

$$$$
>  <Compound>
COc1cc(CC2CC(c3ccc4c(c3)OCO4)OC2=O)cc(OC)c1OC (centres undefined)

>  <Class label>
bin 1

$$$$
>  <Compound>
S=C(S)NN1CCOCC1

>  <Class label>
bin 3

$$$$
>  <Compound>
CC(=O)Cc1ccc[cH-]1.[Fe+2].c1cc[cH-]c1

>  <Class label>
bin 1

$$$$

[ask] State the class of the compound shown: C#CCCCc1ccccc1
[reply] bin 2

[ask] State the class of the compound shown: NNc1c(F)c(F)cc(F)c1F
[reply] bin 2

[ask] State the class of the compound shown: CCCCCCCCCCC1CCC(=O)O1 (centres undefined)
[reply] bin 2

[ask] State the class of the compound shown: O=Nc1cccnc1N=O
[reply] bin 3

[ask] State the class of the compound shown: CN(C)c1ccc(Sc2ccc3nc(N)nc(N)c3c2)cc1
[reply] bin 2

[ask] State the class of the compound shown: CCN(CC)CC(O)c1ccc2ccc3ccccc3c2c1 (centres undefined)
[reply] bin 1

[ask] State the class of the compound shown: O=C(NNc1ccnc2cc(Cl)ccc12)/C(=C\c1ccccc1Cl)NC(=O)c1ccccc1
[reply] bin 3
